Reference for the values: ChEMBL document CHEMBL5154871

method-description: MRT in Sprague-Dawley rat at 10 mg/kg, po measured after 24 hrs by LC-MS/MS analysis
Format: ADME, organism-based
condition-notes: in vivo
measured-endpoint: MRT (h)
Just the number in h, nothing appended.

QUERY: Which MRT is reported for this compound? CC(=O)Nc1cccc(Nc2nc(Nc3ccc(-c4ccsc4)cn3)ncc2Cl)c1
RESULT: 2.35

====

assay-system: Dipeptidyl peptidase 1 (Homo sapiens, UniProt P53634)
Sequence (P53634 25-134 limits assumed): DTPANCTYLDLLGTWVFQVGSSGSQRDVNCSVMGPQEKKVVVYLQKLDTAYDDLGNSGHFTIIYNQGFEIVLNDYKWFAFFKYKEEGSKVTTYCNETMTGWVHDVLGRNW
Sequence (P53634 231-394 limits assumed): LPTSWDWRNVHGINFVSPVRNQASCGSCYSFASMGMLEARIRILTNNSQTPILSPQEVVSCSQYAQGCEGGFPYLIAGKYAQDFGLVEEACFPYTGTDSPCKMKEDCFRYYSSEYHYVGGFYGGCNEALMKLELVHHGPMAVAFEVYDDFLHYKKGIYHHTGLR
Sequence (P53634 395-463 limits assumed): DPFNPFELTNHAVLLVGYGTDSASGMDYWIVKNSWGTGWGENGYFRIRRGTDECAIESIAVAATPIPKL
method-description: Inhibition of Cathepsin C in human U-937 cells using H-Gly-Phe-AFC as substrate pretreated for 1 hr followed by substrate addition and incubated for 60 mins by microplate reader assay
Format: cell-based
The entries below are paired with their reported pIC50.
Lab note — pIC50 values are minus log10 of concentrations in M.

Some molecules with recorded pIC50:
- Nc1ccc(Nc2nc(Nc3ccc(-c4ccsc4)cn3)ncc2Cl)cc1: 7.05
- FC(F)(F)c1cccc(Nc2nc(Nc3cc(-c4ccsc4)ccn3)ncc2Cl)c1: 6.81

QUERY: What value of pIC50 has been recorded for this entry: NC(=O)c1ccc(-c2cnc(Nc3ccc(-c4ccsc4)cn3)nc2Nc2cccc(C(F)(F)F)c2)cc1
RESULT: 6.55

QUERY: What do you have for O=[N+]([O-])c1cc(-c2ccsc2)cnc1Nc1ncc(Cl)c(Nc2cccc(C(F)(F)F)c2)n1 ?
RESULT: 6.56

QUERY: Entry to check: Clc1cnc(Nc2ccc(-c3ccsc3)cn2)nc1Nc1ccccn1
RESULT: 6.81

QUERY: Now consider FC(F)(F)c1ccc(CNc2nc(Nc3ccc(-c4ccsc4)cn3)ncc2Cl)cc1 .
RESULT: 7.04
